Where do these numbers come from? They come from patent US10364226B2.

pIC50: −log10 of the molar value.
Assay read-out pIC50; system under study: EN PA (Influenza A virus, UniProt P15659).

compound | pIC50
CNC(=O)c1nn(CC2(n3cc(C)c4cccnc43)CCCC2)cc(OC(=O)OCC(C)(C)C)c1=O [Compound 801] | > 7.00
CNC(=O)c1nn(CC2(c3ccc4ccncc4c3)CCCC2)cc(O)c1=O [Compound 848] | > 7.00
CNC(=O)c1nn(CCC2CCCCC2)cc(O)c1=O [Compound 606] | ≤ 6.00
CNC(=O)c1nn(-c2ccccc2-c2ccc3[nH]ccc3c2)cc(O)c1=O [Compound 613] | ≤ 6.00
O=C1NCCCCCc2ccc3ccn(c3c2)C2(CCCC2)Cn2cc(O)c(=O)c1n2 [Compound 826] | > 7.00
CNC(=O)c1nn(-c2ccccc2-c2ccc3cc[nH]c3c2)cc(O)c1=O [Compound 521] | ≤ 6.00
CS(=O)(=O)NC(=O)c1nn(CC2(c3cccc(C(F)(F)F)c3)CCCC2)cc(O)c1=O [Compound 512] | 6.00 to 7.00
Cc1ccc(OC(C)C)c(-c2ccccc2-n2cc(O)c(=O)c(C(=O)O)n2)c1 [Compound 314] | 6.00 to 7.00
O=C(NCc1ccccc1)c1nn(CC2(c3cccc(C(F)(F)F)c3)CCCC2)cc(O)c1=O [Compound 509] | 6.00 to 7.00
O=C(Nc1ccccc1)c1nn(CC2(c3ccccc3)CCCC2)cc(O)c1=O [Compound 639] | 6.00 to 7.00
O=C(NCc1ccccc1)c1nn(CC2(c3ccc(F)c(F)c3)CCCC2)cc(O)c1=O [Compound 812] | > 7.00
CCCCOc1ccc(-n2cc(O)c(=O)c(C(=O)O)n2)cc1 [Compound 25] | ≤ 6.00
O=C(NCc1ccc(Cl)c(Cl)c1)c1nn(CC2(c3cccc(C(F)(F)F)c3)CCCC2)cc(O)c1=O [Compound 513] | 6.00 to 7.00
CNC(=O)c1nn(CCc2cccc3ccccc23)cc(OC(C)=O)c1=O [Compound 636] | ≤ 6.00
CC1(C)CC(Cn2cc(O)c(=O)c(C(=O)NCc3ccccc3)n2)(c2ccccc2)C1 [Compound 798] | 6.00 to 7.00
CNC(=O)c1nn(CC2(n3cc(C)c4cccnc43)CCCCC2)cc(O)c1=O [Compound 788] | > 7.00
CC(C)(C)c1ccc(-n2cc(O)c(=O)c(C(=O)O)n2)cc1 [Compound 3] | 6.00 to 7.00
CNC(=O)c1nn(CC(C)(C)n2cc(C(F)(F)F)c3cccnc32)cc(O)c1=O [Compound 704] | > 7.00
CNC(=O)c1nn(CC2(n3cc(C(C)C)c4cccnc43)CCCC2)cc(O)c1=O [Compound 694] | 6.00 to 7.00
Cc1cc(F)ccc1-c1ccccc1-n1cc(O)c(=O)c(C(=O)O)n1 [Compound 305] | 6.00 to 7.00
COc1ccc(Cl)c(-c2ccccc2-n2cc(O)c(=O)c(C(=O)O)n2)c1 [Compound 322] | 6.00 to 7.00
CNC(=O)c1nn(CC2(n3cc(C)c4ccccc43)CCCC2)cc(O)c1=O [Compound 740] | > 7.00
CCOc1ccccc1-n1cc(O)c(=O)c(C(=O)O)n1 [Compound 23] | 6.00 to 7.00
Cc1ccccc1-c1ccccc1-n1cc(O)c(=O)c(C(=O)O)n1 [Compound 38] | 6.00 to 7.00
O=C(NCc1ccccc1)c1nn(CC2(c3cccnc3)CCCC2)cc(O)c1=O [Compound 807] | > 7.00
O=C(O)c1nn(-c2ccccc2Oc2ccccc2)cc(O)c1=O [Compound 9] | 6.00 to 7.00
